biological target: KATP channels (Homo sapiens, UniProt O60706); construct: TE671 human medulloblastoma cells were obtained from ATCC; experiment: Potassium Channel Assay (FLIPR membrane potential, KATP channel opening); conditions: TE671 human medulloblastoma cells, Membrane Potential Assay Dye, room temperature
Sequence (O60706 1-1549 isoform O60706-2): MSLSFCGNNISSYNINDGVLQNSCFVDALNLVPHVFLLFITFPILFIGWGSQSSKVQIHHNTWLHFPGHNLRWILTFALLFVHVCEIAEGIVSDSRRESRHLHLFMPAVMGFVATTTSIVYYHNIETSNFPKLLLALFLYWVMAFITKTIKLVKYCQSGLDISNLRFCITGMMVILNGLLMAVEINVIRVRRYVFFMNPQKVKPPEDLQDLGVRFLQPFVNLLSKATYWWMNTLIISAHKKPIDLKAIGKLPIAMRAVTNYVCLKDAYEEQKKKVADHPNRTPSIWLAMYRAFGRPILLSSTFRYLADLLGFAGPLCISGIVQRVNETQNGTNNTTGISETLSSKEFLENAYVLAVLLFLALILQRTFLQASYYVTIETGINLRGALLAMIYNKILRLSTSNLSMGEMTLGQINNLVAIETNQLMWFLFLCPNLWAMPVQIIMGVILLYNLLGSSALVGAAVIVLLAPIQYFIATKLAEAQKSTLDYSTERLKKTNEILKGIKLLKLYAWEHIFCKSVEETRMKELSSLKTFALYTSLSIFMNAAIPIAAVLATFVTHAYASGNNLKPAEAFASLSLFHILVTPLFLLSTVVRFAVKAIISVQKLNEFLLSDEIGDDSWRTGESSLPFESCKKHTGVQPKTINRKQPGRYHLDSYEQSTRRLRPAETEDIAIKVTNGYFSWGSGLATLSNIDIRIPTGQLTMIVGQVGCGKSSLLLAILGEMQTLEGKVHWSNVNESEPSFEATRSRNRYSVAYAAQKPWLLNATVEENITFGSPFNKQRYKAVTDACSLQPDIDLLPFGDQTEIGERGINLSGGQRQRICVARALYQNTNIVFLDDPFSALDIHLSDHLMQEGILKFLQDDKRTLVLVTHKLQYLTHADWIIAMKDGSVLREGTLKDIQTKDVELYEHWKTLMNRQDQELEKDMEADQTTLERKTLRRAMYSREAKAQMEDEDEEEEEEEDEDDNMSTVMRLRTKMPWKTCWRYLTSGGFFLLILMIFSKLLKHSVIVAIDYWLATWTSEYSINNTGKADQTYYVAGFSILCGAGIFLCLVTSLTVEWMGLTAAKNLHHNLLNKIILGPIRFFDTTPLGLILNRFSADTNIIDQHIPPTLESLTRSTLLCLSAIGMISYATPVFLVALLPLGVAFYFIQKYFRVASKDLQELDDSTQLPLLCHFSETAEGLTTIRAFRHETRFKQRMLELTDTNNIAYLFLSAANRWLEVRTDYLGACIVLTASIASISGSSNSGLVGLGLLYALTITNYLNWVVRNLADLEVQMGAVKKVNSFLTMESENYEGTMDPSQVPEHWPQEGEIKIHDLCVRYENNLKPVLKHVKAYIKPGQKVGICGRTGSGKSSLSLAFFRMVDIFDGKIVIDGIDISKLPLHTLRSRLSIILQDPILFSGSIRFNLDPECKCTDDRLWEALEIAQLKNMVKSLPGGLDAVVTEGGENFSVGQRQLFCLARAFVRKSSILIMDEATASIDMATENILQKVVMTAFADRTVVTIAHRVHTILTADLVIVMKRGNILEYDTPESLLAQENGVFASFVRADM
Sequence (Q14654 whole entry partner): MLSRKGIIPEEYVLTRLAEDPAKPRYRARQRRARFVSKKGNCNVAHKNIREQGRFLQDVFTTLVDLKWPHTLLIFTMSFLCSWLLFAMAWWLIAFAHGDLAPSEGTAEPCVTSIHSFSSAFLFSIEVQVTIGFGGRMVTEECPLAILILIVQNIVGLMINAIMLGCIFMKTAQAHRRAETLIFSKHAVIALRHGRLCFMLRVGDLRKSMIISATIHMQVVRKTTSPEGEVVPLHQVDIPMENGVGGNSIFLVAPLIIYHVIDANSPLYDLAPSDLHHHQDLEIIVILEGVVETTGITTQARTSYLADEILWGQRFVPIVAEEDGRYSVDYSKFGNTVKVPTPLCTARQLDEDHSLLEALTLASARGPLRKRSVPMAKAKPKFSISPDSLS
# key: entry, value: EC50
Output spec: scalar in µM, unitless text.

Below: 3 compounds and their reported EC50.
COc1ccccc1C(O)c1cnccc1-c1cccc(C#N)c1 (stereo not drawn) [Compound 28]; 10.2
N#Cc1cccc(-c2ccncc2C(O)C(F)(F)F)c1 (stereo not drawn) [Compound 39]; 10.5
CCOC(=O)c1cnc2cc(C(F)(F)F)ccc2c1OS(=O)(=O)C(F)(F)F [Compound 15]; 6.27

# query: EC50 | item N#Cc1cccc(-c2ccncc2C(O)c2ccc(F)cc2)c1 (stereo not drawn) [Compound 20] | system: KATP channels (Homo sapiens, UniProt O60706) 19.4
